ASSAY SYSTEM: human LPA1 (Homo sapiens, UniProt Q92633)
Construct: the full-length cDNA for human LPA1 was obtained by PCR of the reverse transcription reaction
Sequence (Q92633 whole entry): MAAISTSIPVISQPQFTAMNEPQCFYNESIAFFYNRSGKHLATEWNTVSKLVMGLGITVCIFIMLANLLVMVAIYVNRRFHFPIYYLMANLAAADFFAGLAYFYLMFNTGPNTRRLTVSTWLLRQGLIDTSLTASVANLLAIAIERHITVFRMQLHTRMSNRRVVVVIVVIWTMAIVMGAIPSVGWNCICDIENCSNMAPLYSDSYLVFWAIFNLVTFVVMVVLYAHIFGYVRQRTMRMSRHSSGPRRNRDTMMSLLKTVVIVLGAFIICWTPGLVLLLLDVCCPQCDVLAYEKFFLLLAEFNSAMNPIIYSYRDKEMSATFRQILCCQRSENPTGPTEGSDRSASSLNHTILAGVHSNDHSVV
TEST DETAILS: LPA1 calcium flux assay
TEST CONDITIONS: CHO cells expressing human LPA1, stimulated with 10 nM LPA; read-out: HLPA1 Ca Flux IC50
Experimental: A 1.1 kb cDNA encoding the human LPA1 receptor was cloned from human lung. […] Human LPA1 or LPA3 expressing CHO cells are seeded at 20,000-45,000 cells per well in a 96-well poly-D-lysine coated plate one or two days before the assay. […] Cells are the stimulated by the addition of 10 nM LPA and intracellular Ca^2+ measured using the Flexstation 3 (Molecular Devices). IC50s are determined using Graphpad prism analysis of drug titration curves.
pIC50: −log10 of the molar value.
MEASURE: pIC50

Cc1noc(-c2ccc(-c3ccc(C4(C(=O)O)CC4)cc3)cc2)c1CCNC(=O)c1ccccc1 ... 4.30 to 6.00
Cc1noc(-c2ccc(-c3ccc(CC(=O)O)cc3)cc2)c1C(O)CCCc1ccccc1 (single isomer, unassigned) ... > 6.52
Cc1noc(-c2ccc(-c3ccc(C4(C(=O)O)CC4)cc3)cc2)c1NC(C)CCc1cccc(Cl)c1 (single isomer, unassigned) [Compound 1-240] ... > 6.52

[ask] Find the recorded pIC50 belonging to "Cc1noc(-c2ccc(-c3ccc(C4(C(=O)O)CC4)cc3)cc2)c1CO" and report it.
[reply] 4.30 to 6.00

* * *

ASSAY SYSTEM: human LPA1 (Homo sapiens, UniProt Q92633)
Construct: the full-length cDNA for human LPA1 was obtained by PCR of the reverse transcription reaction
TEST DETAILS: LPA1 calcium flux assay
TEST CONDITIONS: CHO cells expressing human LPA1, stimulated with 10 nM LPA; read-out: HLPA1 Ca Flux IC50
List of IC50 values.

Cc1noc(-c2ccc(-c3ccc(CCC(=O)O)cc3)cc2)c1NC(C)CCc1cccc(C(F)(F)F)c1 (stereo not drawn) [Compound 1-192] ... < 300 nM
Cc1noc(-c2ccc(-c3ccc(CC(=O)O)cc3)cc2)c1NC(C)CCc1cccc(Cl)c1 (stereo not drawn) [Compound 1-182] ... < 300 nM
CC(=O)N(Cc1ccccc1)CC(O)Cc1c(C)noc1-c1ccc(-c2ccc(C3(C(=O)O)CC3)cc2)cc1 (stereo not drawn) [Compound 1-138] ... 1000 to 50000 nM
Cc1noc(-c2ccc(-c3ccc([C@H]4C[C@H]4C(=O)O)cc3)cc2)c1C(O)CCCc1ccccc1 (relative stereo) [Compound 1-144] ... < 300 nM
Cc1noc(-c2ccc(-c3ccc(C4(C(=O)NS(C)(=O)=O)CC4)cc3)cc2)c1[C@@H](COCc1ccccc1)OC(=O)NS(C)(=O)=O [Compound 2-4] ... < 300 nM

Here's the next entry for you.
[ask] So what's the measured IC50 for this one? Cc1noc(-c2ccc(-c3ccc(C4(C(=O)O)CC4)cc3)cc2)c1Nc1cccc(Br)n1 [Compound 1-313]
[reply] < 300 nM

* * *

The reader will find reported pIC50 values listed item by item below.
ASSAY SYSTEM: human LPA1 (Homo sapiens, UniProt Q92633)
Construct: the full-length cDNA for human LPA1 was obtained by PCR of the reverse transcription reaction
TEST DETAILS: LPA1 calcium flux assay
TEST CONDITIONS: CHO cells expressing human LPA1, stimulated with 10 nM LPA; read-out: HLPA1 Ca Flux IC50
pIC50: −log10 of the molar value.

Use these answered entries as a reference point.
Cc1noc(-c2ccc(-c3ccc(C4(C(=O)O)CC4)cc3)cc2)c1Nc1cccc(OC(C)C)n1 [Compound 1-297] ... > 6.52
Cc1noc(-c2ccc(-c3ccc(C4(C(=O)O)CC4)cc3)cc2)c1/C=C\CC(C)c1ccccc1 (stereo not drawn) [Compound 1-112] ... > 6.52

Now let's try a different one.
[ask] I'm curious: which pIC50 was measured for Cc1noc(-c2ccc(-c3ccc(C4(C(=O)O)CC4)cc3)cc2)c1CCC(=O)N(C)C1CC1 [Compound 1-127] tested on human LPA1 (Homo sapiens, UniProt Q92633)?
[reply] 4.30 to 6.00
